// provenance: patent US9963448B2

target-or-test-system: mPAD4 (Mus musculus, UniProt Q9Z183)
Sequence (Q9Z183 whole entry): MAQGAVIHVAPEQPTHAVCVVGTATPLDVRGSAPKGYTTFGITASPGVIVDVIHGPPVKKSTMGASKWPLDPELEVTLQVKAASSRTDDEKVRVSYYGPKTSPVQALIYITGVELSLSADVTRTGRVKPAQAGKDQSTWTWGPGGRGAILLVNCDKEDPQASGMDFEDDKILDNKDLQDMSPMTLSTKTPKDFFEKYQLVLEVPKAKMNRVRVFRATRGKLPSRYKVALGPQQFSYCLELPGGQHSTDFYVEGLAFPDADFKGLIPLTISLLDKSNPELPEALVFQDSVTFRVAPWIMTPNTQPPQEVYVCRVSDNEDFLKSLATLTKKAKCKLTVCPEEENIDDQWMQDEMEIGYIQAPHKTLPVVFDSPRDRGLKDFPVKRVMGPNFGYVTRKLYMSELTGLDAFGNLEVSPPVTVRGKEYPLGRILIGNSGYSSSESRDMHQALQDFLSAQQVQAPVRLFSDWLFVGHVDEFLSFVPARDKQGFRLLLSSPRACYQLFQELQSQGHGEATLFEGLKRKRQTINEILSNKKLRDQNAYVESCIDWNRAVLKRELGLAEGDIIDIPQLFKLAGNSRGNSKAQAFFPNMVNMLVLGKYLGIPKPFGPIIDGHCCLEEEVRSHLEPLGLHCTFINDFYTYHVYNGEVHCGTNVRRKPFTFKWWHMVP
assay-notes: mPAD4 RFMS PAD4 inhibition assay
Assay type: biochemical
condition-label: mPAD4, RFMS readout; read-out: mPAD4 RFMS IC50
pIC50: −log10 of the molar value.
metric: pIC50

Past entries and their recorded results:
>>> recorded_result("COc1cc(C(=O)N2CCC[C@@H](N)C2)cc2nc(-c3cc4cccnc4n3CC3CC3)n(CC3CC(C)(O)C3)c12 (stereo partly shown)")
"> 6.00"
>>> recorded_result("Cn1c(-c2cc3cccnc3n2CC2CC2)nc2cc(C(=O)N3CC[C@H]4CCN[C@H]4C3)ccc21")
"5.00 to 5.30"
>>> recorded_result("COc1cc(C(=O)N2C[C@H]3CC[C@@H]2[C@@H]3N)cc2nc(-c3cc4cccnc4n3CC3CC3)n([C@H]3C[C@@H](F)C3)c12")
"> 6.00"
>>> recorded_result("COc1cc(C(=O)N2C[C@@H](N)CC[C@@H]2CO)cc2nc(-c3cc4cccnc4n3CC3CC3)n(C)c12 (single isomer, unassigned)")
"< 5.00"
>>> recorded_result("COc1cc(C(=O)N2C[C@@H](N)C[C@H](F)C2)cc2nc(-c3cc4cccnc4n3CC3(C)CC3)n(C)c12")
"5.30 to 6.00"
>>> recorded_result("CCn1c(-c2nc3cc(C(=O)N4C[C@H]5CC[C@@H]4[C@@H]5N)cc(OC)c3n2C[C@H]2C[C@@](C)(O)C2)cc2cccnc21")
"> 6.00"

[Q] Provide measured pIC50 value, entry: "CCn1c(-c2nc3cc(C(=O)N4C[C@@H](N)CC[C@H]4C)cc(OC)c3n2C)cc2cccnc21"
[A] > 6.00

[Q] Please look at this compound and report its pIC50: "CCn1c(-c2cc3ccc(OC)nc3n2CC2CC2)nc2cc(C(=O)N3C[C@@H](N)C[C@H](F)C3)cc(OC)c21"
[A] > 6.00

[Q] Determine its reported pIC50: COc1cc(C(=O)N2C[C@H](N)CC[C@@H]2CO)cc2nc(-c3cc4cccnc4n3CC3CC3)n(C)c12 (single isomer, unassigned) [Compound I-228]
[A] 5.30 to 6.00

[Q] Quick one: give measured pIC50 for "CCn1c(-c2nc3cc(C(=O)N4C[C@H]5CC[C@@H]4[C@@H]5N)cc(OC)c3n2C)cc2ccc(OC)nc21"
[A] > 6.00

[Q] Give me measured pIC50, please, for this compound: "CCn1c(-c2nc3cc(C(=O)N4CCC[C@@H](N)C4)cc(OC)c3n2C[C@H]2C[C@@](C)(OC)C2)cc2ccc(OC)nc21"
[A] > 6.00

[Q] For the compound COc1cc(C(=O)N2C[C@H]3CC[C@@H]2[C@@H]3N)cc2nc(-c3cc4cccnc4n3CC3CC3)n(CC[S+](C)[O-])c12 (stereo partly shown) , give its measured pIC50 value.
[A] > 6.00

[Q] Supply recorded pIC50 for "COc1cc(C(=O)N2CCC[C@@H](N)C2)cc2nc(-c3cc4cccnc4n3CC3CC3)n(C[C@H]3C[C@@](C)(OC)C3)c12" here.
[A] > 6.00

[Q] State its pIC50: "CCn1c(-c2nc3cc(C(=O)N4C[C@H]5CC[C@@H]4[C@@H]5N)cc(OC)c3n2C[C@H]2C[C@@](C)(OC)C2)cc2ccc(OC)nc21"
[A] > 6.00

[Q] Provide only the value of recorded pIC50 for COc1cc(C(=O)N2CC3CCC2C(N)C3)cc2nc(-c3cc4cccnc4n3CC3CC3)n(C)c12 (stereo not shown) [Compound I-115]
[A] > 6.00

* * *

target-or-test-system: hPAD4 (Homo sapiens)
Sequence (Q9UM07 whole entry): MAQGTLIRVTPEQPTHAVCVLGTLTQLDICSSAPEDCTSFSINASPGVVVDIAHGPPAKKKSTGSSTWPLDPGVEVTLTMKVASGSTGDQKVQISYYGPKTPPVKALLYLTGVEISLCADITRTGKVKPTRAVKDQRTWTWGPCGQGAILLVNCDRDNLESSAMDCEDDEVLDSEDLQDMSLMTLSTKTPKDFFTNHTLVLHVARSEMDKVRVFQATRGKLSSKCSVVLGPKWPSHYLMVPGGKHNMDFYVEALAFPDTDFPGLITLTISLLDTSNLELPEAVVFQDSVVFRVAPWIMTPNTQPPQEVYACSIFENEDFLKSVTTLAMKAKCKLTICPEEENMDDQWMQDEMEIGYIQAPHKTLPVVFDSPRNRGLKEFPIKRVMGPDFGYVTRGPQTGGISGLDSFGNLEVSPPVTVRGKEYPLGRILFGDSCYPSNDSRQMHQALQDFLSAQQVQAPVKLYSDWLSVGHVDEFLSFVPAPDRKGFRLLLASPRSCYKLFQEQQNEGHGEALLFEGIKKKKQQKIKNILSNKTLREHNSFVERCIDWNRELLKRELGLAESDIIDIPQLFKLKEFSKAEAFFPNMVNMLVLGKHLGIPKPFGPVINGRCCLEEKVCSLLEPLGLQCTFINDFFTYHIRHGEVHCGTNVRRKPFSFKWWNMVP
assay-notes: hPAD4 RFMS (RapidFire mass spectrometry) PAD4 inhibition assay;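 as to hPAD4 RFMS pIC50: grade E means pIC50 at most 4 and F means pIC50 4.0 to 5.0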
Assay type: biochemical
condition-label: hPAD4 enzyme, RFMS readout; pIC50=−log(IC50); read-out: hPAD4 RFMS pIC50 (converted)
Experimental: Compounds of the present invention were assayed as inhibitors of PAD4 using the assay protocol described below. Compound stock solutions were stored at RT. […] Final assay conditions were as follows: Total incubation time: 65 mins at 37° C. Stop solution: 40 μl 5% TCA in ACN The compound numbers correspond to the compound numbers in Table 1. […] The term pIC50=−log(IC50). […] “NA” stands for “not assayed.”
Where a name gives a salt, the structure may show the parent alone.
metric: IC50

>>> recorded_result("COc1ccc2cc(-c3nc4cc(C(=O)N5C[C@H](N)C[C@@H](F)C5)cc(OC(F)F)c4n3C)n(CC3CC3)c2n1")
"< 1000 nM"
>>> recorded_result("COc1cc(C(=O)N2C[C@@H](N)C[C@H](O)C2)cc2nc(-c3cc4cccnc4n3CC3CC3)n(C)c12 (racemic)")
"1000 to 10000 nM"
>>> recorded_result("COc1cc(C(=O)N2C[C@H]3CCC2[C@H]3N)cc2nc(-c3cc4cc(/C=C/C5CC5)ccc4n3CC3CC3)n(C)c12")
"< 1000 nM"
>>> recorded_result("COc1cc(C(=O)N2C[C@H]3CCC2[C@H]3N)cc2nc(-c3cc4ccc(/C=C/Cc5ccccc5)cc4n3CC3CC3)n(C)c12")
"< 1000 nM"
>>> recorded_result("COc1cc(C(=O)N2C[C@H]3CC[C@@H]2[C@@H]3N)cc2nc(-c3cc4cccnc4n3CC3CC3)n(C[C@H]3CCOC3)c12")
"< 1000 nM"
>>> recorded_result("Cn1c(-c2cc3cccnc3n2CC2CC2)nc2cc(C(=O)N3CCC[C@@H](N)C3)cc(C(N)=O)c21 [Compound I-112, hydrochloride]")
"1000 to 10000 nM"

[Q] Write down IC50 measured for item "COc1cc(C(=O)N2C[C@H]3CC[C@@H]2[C@@H]3N)cc2nc(-c3cc4cc(C5=Cc6ccccc6C5)ccc4n3CC3CC3)n(C)c12"
[A] < 1000 nM

[Q] Provide IC50 value for the following compound: "COc1cc(C(=O)N2C[C@H]3CCC2[C@H]3N)cc2nc(-c3cc4ccc(/C=C/c5ccccc5)cc4n3CC3CC3)n(C)c12"
[A] < 1000 nM

[Q] Give IC50 for the following compound: "COc1cc(C(=O)N2C[C@H]3CC[C@@H]2[C@@H]3N)cc2nc(-c3cc4ccc(C(F)(F)F)nc4n3CC3CC3)n(C)c12"
[A] < 1000 nM

[Q] Return IC50 (reported value) for this compound: "COCCn1c(-c2nc3cc(C(=O)N4C[C@H]5CC[C@@H]4[C@@H]5N)ccc3n2C)cc2ccc(OC)nc21"
[A] < 1000 nM

[Q] Tell me IC50 reported for "Cn1c(-c2cc3cccnc3n2CC2CC2)nc2cc(C(=O)N3CCC[C@H]4CNC[C@H]43)ccc21"
[A] > 100000 nM

[Q] Recall and state the measured IC50 for "CCn1c(-c2nc3cc(C(=O)N4CCC[C@@H](N)C4)cc(OC)c3n2C)cc2ccc(OC)nc21" .
[A] < 1000 nM

[Q] Return the recorded IC50 value; entry: "CCn1c(-c2nc3cc(C(=O)N4C[C@H](N)C[C@@H](F)C4)cc(OC)c3n2C[C@H]2C[C@@](C)(OC)C2)cc2ccc(OC)nc21"
[A] < 1000 nM

* * *

Recorded IC50 values for a group of compounds are listed next.
target-or-test-system: hPAD4 (Homo sapiens)
assay-notes: hPAD4 RFMS (RapidFire mass spectrometry) PAD4 inhibition assay
Format: biochemical
condition-label: hPAD4 enzyme, RFMS readout; read-out: hPAD4 RFMS IC50

Worked cases, IC50 given:
>>> recorded_result("COc1cc(C(=O)N2CCC[C@@H](N)C2)cc2nc(-c3cc4ccc(C(F)(F)F)nc4n3CC3CC3)n(C)c12")
"< 1000 nM"
>>> recorded_result("COc1cc(C(=O)N2CCOC3(CNC3)C2)cc2nc(-c3cc4cccnc4n3CC3CC3)n(C)c12")
"> 10000 nM"
>>> recorded_result("COc1cc(C(=O)N2C[C@@H]3CC[C@H]2[C@H](N)C3)cc2nc(-c3cc4cccnc4n3CC3CC3)n(C)c12")
"> 10000 nM"
>>> recorded_result("CO[C@@H]1CCN(C(=O)c2cc(OC(F)F)c3c(c2)nc(-c2cc4cccnc4n2CC2CC2)n3C)C[C@@H]1N [Compound I-133]")
"> 10000 nM"
>>> recorded_result("COc1cc(C(=O)N2CCC[C@@H](N)C2)cc2nc(-c3cc4cccnc4n3[C@@H](C)C3CC3)n(C)c12")
"< 1000 nM"

[Q] Supply reported IC50 belonging to this compound: "COc1cc(C(=O)N2C[C@H](N)C[C@@H](F)C2)cc2nc(-c3cc4cccnc4n3CC3CC3)n(C)c12"
[A] < 1000 nM

[Q] Give me measured IC50, please, for this compound: "CCn1c(-c2nc3cc(C(=O)N4C[C@H]5CC[C@@H]4[C@@H]5N)ccc3n2C)cc2cccnc21"
[A] 1000 to 5000 nM
